# target-or-test-system: sodium channel (site 2) (Homo sapiens, UniProt P35498+P35499+Q01118+Q14524+Q15858+Q99250+Q9NY46+Q9UI33+Q9UQD0+Q9Y5Y9)
# test-method-notes: Na+ channel (site 2) Ligand binding assay
# Assay type: protein assay
# test-context: compound concentration 1 uM
quantity-measured: inhibition at 1 µM

Lookup: Please give the measured inhibition at 1 µM for this compound: Cn1cncc1[C@](O)(COc1ccc(C#N)cc1-c1ccc(OC(F)(F)F)cc1)c1ccc(C#N)cc1 [ABT-100]
Found: 10% (not active)

###

# target-or-test-system: Sigma non-opioid intracellular receptor 1 (Homo sapiens, UniProt Q99720)
# Sequence (Q99720 whole entry): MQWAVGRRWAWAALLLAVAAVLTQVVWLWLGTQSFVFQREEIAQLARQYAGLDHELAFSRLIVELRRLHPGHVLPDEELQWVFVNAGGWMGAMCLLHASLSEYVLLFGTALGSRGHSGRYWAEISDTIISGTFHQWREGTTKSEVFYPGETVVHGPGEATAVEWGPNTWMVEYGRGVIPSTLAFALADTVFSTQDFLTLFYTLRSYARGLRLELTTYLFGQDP
# test-method-notes: GPCRScan assay: inhibition of Sigma 1
quantity-measured: pKi
The scale used: pKi is minus the common logarithm of the concentration in molar units.

Lookup: Please give the measured pKi for this molecule: "Cn1cncc1[C@@](O)(COc1ccc(C#N)cc1-c1ccc(OC(F)(F)F)cc1)c1ccc(C#N)cc1"
Found: 7.04
